System: 883617-216-R-J1-PDC complex spheroid viability;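 further: spheroids exposed to compounds for seven days before readout; 100% = DMSO vehicle control viability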
Assay: Anticancer human tumor 883617-216-R-J1-PDC patient-derived bladder carcinoma cell line growth inhibition [POLQ]
Details: second compound 10 µM; first compound 10 µM; hits give low values
viability, T/C listing for selected compounds.

{"columns": ["compound", "targetDesc", "viability, T/C (%)"],
 "data": [
  ["O=c1[nH]cc(F)c(=O)[nH]1 + Cc1cccc(N(C)C(=O)C2C(O)CCN2c2nc(C)cc(C(F)(F)F)c2C#N)c1", "883617-216-R-J1-PDC complex spheroid viability", 74.6],
  ["COc1cc2cc(C(=O)CCC(=O)O)sc2cc1OC + COC1C(OC(N)=O)C(O)C(Oc2ccc3c(O)c(NC(=O)c4ccc(O)c(CC=C(C)C)c4)c(=O)oc3c2C)OC1(C)C", "883617-216-R-J1-PDC complex spheroid viability", 101],
  ["CCc1cc2c(N3CCc4c(cc(Cn5ccnc5)cc4-c4cn(C)nc4C(F)(F)F)C3=O)ccnc2c(OC)n1 + Cc1cccc(N(C)C(=O)C2C(O)CCN2c2nc(C)cc(C(F)(F)F)c2C#N)c1", "883617-216-R-J1-PDC complex spheroid viability", 42.6],
  ["C#Cc1c(F)ccc2cc(O)cc(-c3ncc4c(N5CC6CCC(C5)N6)nc(OCC56CCCN5CC(F)C6)nc4c3F)c12 (stereo unspecified) + Nc1ccc(C#CCN(C(=O)Cc2ncc(C(F)(F)F)cc2C(F)(F)F)c2ccc(F)cc2)nn1", "883617-216-R-J1-PDC complex spheroid viability", 102],
  ["O=c1[nH]cc(F)c(=O)[nH]1 + Nc1ccc(C#CCN(C(=O)Cc2ncc(C(F)(F)F)cc2C(F)(F)F)c2ccc(F)cc2)nn1", "883617-216-R-J1-PDC complex spheroid viability", 94.1],
  ["CC1COCCN1c1cc(C2(O)CC3CCC(C2)O3)c2cnn(-c3ccn[nH]3)c2n1 (stereo unspecified) + Cc1cccc(N(C)C(=O)C2C(O)CCN2c2nc(C)cc(C(F)(F)F)c2C#N)c1", "883617-216-R-J1-PDC complex spheroid viability", 23.9],
  ["CC1COCCN1c1cc(-c2ccnn2C)c2ccnc(-c3ccn[nH]3)c2n1 (stereo unspecified) + Nc1ccc(C#CCN(C(=O)Cc2ncc(C(F)(F)F)cc2C(F)(F)F)c2ccc(F)cc2)nn1", "883617-216-R-J1-PDC complex spheroid viability", 34.4],
  ["CNCc1ccc(-c2[nH]c3cc(F)cc4c3c2CCNC4=O)cc1 + COC1C(OC(N)=O)C(O)C(Oc2ccc3c(O)c(NC(=O)c4ccc(O)c(CC=C(C)C)c4)c(=O)oc3c2C)OC1(C)C", "883617-216-R-J1-PDC complex spheroid viability", 95.6],
  ["C#Cc1c(F)ccc2cc(O)cc(-c3ncc4c(N5CC6CCC(C5)N6)nc(OCC56CCCN5CC(F)C6)nc4c3F)c12 (stereo unspecified) + COC1C(OC(N)=O)C(O)C(Oc2ccc3c(O)c(NC(=O)c4ccc(O)c(CC=C(C)C)c4)c(=O)oc3c2C)OC1(C)C", "883617-216-R-J1-PDC complex spheroid viability", 73.6],
  ["O=C(c1cc(Cc2n[nH]c(=O)c3ccccc23)ccc1F)N1CCN(C(=O)C2CC2)CC1 + Nc1ccc(C#CCN(C(=O)Cc2ncc(C(F)(F)F)cc2C(F)(F)F)c2ccc(F)cc2)nn1", "883617-216-R-J1-PDC complex spheroid viability", 73],
  ["CC1COCCN1c1cc(-c2ccnn2C)c2ccnc(-c3ccn[nH]3)c2n1 (stereo unspecified) + COC1C(OC(N)=O)C(O)C(Oc2ccc3c(O)c(NC(=O)c4ccc(O)c(CC=C(C)C)c4)c(=O)oc3c2C)OC1(C)C", "883617-216-R-J1-PDC complex spheroid viability", 32.3]
]}
